biological target: Adenosine 2a receptor (Homo sapiens); construct: expressed in transfected cells; host or cells: Chinese hamster ovary (CHO) cells, co-transfected with a CRE-SPAP reporter; assay: Agonist activity against adenosine 2a receptor subtype (CHO cells, cAMP response element/SPAP reporter); format: cell-based; conditions: EC50 ratio to NECA; transfected CHO cells, basal cAMP reflected by SPAP
Sequence (P29274 whole entry): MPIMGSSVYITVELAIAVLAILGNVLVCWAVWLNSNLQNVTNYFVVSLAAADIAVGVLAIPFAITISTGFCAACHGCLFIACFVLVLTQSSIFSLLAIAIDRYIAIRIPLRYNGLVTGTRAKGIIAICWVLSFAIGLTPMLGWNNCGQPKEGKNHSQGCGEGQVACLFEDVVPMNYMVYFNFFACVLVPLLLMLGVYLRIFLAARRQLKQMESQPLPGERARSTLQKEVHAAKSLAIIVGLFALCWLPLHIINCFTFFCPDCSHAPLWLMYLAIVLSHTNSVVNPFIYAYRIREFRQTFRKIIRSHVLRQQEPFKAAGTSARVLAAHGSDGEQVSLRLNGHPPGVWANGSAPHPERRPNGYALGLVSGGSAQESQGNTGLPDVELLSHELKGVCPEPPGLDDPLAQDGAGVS
In plain terms, low A2a (EC50 values as a ratio of that of NECA), meaning strictly below 3, gives 1.0, and everything else gives 0.0.

Some solved entries appear below for comparison.
Query block: Criterion: A2a (EC50 values as a ratio of that of NECA) strictly below 3. Is it met by CCc1cc(C2OC(n3cnc4c(NC5CCSCC5)nc(NCCNC(=N)N)nc43)C(O)C2O)on1 (stereo not shown) [Example 9] ?
Result block: 1.0

Query block: Param item: CCc1cc([C@H]2O[C@@H](n3cnc4c(NC(CC)CC)nc(NCCNc5ccccn5)nc43)[C@H](O)[C@@H]2O)on1.O=CO.O=CO [Example 53]
Result block: 1.0

Query block: Param item: CCc1cc(C2OC(n3cnc4c(NC(CC)CC)nc(NC5CCN(Cc6ccccc6)C5)nc43)C(O)C2O)on1 (stereo not shown) [Example 49]
Result block: 0.0

Query block: Param item: CCc1cc(C2OC(n3cnc4c(NC(CO)Cc5ccccc5)nc(NCCN5CCOCC5)nc43)C(O)C2O)on1 (stereo not shown) [Example 51]
Result block: 0.0

Query block: Param item: CCC(CC)Nc1nc(NCCN2CCCCC2)nc2c1ncn2C1OC(c2cc(C)no2)C(O)C1O.O=CO.O=CO (stereo not shown) [Example 55]
Result block: 1.0

Continuing:
Query block: Criterion: A2a (EC50 values as a ratio of that of NECA) strictly below 3. Is it met by CCc1cc(C2OC(n3cnc4c(NCC(c5ccccc5)c5ccccc5)nc(NC5CCC(NC(C)=O)CC5)nc43)C(O)C2O)on1 (stereo not shown) [Example 24] ?
Result block: 1.0

Query block: Param item: CCOC(=O)c1cc(C2OC(n3cnc4c(NC(CC)CC)nc(NCCc5cn(C)cn5)nc43)C(O)C2O)on1 (stereo not shown) [Example 68]
Result block: 0.0

Query block: Param item: CCC(CC)Nc1nc(NCCN2CCCCC2)nc2c1ncn2C1OC(c2cc(CO)no2)C(O)C1O.O=CO.O=CO (stereo not shown) [Example 57]
Result block: 1.0

Query block: Param item: CCc1cc(C2OC(n3cnc4c(NC(CC)CC)nc(NC5CCC(N)CC5)nc43)C(O)C2O)on1.O=CO.O=CO (stereo not shown) [Example 39]
Result block: 1.0

Query block: Param item: CCc1cc(C2OC(n3cnc4c(NC(CC)CC)nc(NCCNC(=N)N)nc43)C(O)C2O)on1 (stereo not shown) [Example 40]
Result block: 0.0

Query block: Param item: CCc1cc(C2OC(n3cnc4c(NCCS(=O)(=O)NC)nc(NCCNC(=N)N)nc43)C(O)C2O)on1 (stereo not shown) [Example 25]
Result block: 0.0

Query block: Param item: CCc1cc([C@H]2O[C@@H](n3cnc4c(NCC(c5ccccc5)c5ccccc5)nc(NCCN5CCCCC5)nc43)[C@H](O)[C@@H]2O)on1.O=CO.O=CO [Example 1]
Result block: 1.0

Query block: Param item: CCC(CC)Nc1nc(NCCN2CCCCC2)nc2c1ncn2C1OC(c2cc(Br)no2)C(O)C1O.O=CO.O=CO (stereo not shown) [Example 67]
Result block: 1.0

Query block: Param item: CCc1cc([C@H]2O[C@@H](n3cnc4c(NC(CC)CC)nc(NCCc5cn(C)cn5)nc43)[C@H](O)[C@@H]2O)on1.O=CO.O=CO [Example 5]
Result block: 1.0

Query block: Param item: CCc1cc(C2OC(n3cnc4c(NC(CC)CC)nc(NC(CO)Cc5ccccc5)nc43)C(O)C2O)on1 (stereo not shown) [Example 35]
Result block: 1.0

Query block: Param item: CCc1cc([C@H]2O[C@@H](n3cnc4c(NCC(c5ccccc5)c5ccccc5)nc(NCCO)nc43)[C@H](O)[C@@H]2O)on1.O=CO [Example 4]
Result block: 1.0

Query block: Param item: CCC(CC)Nc1nc(NCCc2cn(C)cn2)nc2c1ncn2[C@@H]1O[C@H](c2cc(C(C)O)no2)[C@@H](O)[C@H]1O.O=CO.O=CO (stereo partly shown) [Example 58]
Result block: 1.0

Query block: Param item: CCc1cc(C2OC(n3cnc4c(NC(CC)CC)nc(NCCN5CCOCC5)nc43)C(O)C2O)on1.O=CO.O=CO (stereo not shown) [Example 38]
Result block: 0.0

Query block: Param item: CCc1cc([C@H]2O[C@@H](n3cnc4c(NC(CC)CC)nc(NC5CCOCC5)nc43)[C@H](O)[C@@H]2O)on1.O=CO [Example 48]
Result block: 0.0
